Numbers sourced from paper PMC8931250.

# assay_system: GST-SURF4^49-60 (Homo sapiens)
# Construct: SURF4 (49-60) in the same buffer was in the calorimetric cell; made in house; host or cells: Escherichia coli
# procedure_summary: Isothermal titration calorimetry, CW peptide vs GST-SURF4(49-60)
# Format: binding
# condition_parameters: ITC (PEAQ-ITC); 500 µM CW peptide into 50 µM GST-SURF4 (49-60); 10 mM PBS, 0.5 mM HEPES, 6.3 mM sorbitol, 1.75 mM KOAc, 25 µM Mg(OAc)2, 25 µM BSA, 0.003% Triton, pH 7.2; one set of site model; read-out: Kd of CW peptides for GST-SURF4^49-60
Ends that are not written are not given here.
attribute_measured: pKd
In plain terms, pKd is the concentration in mol/L turned into minus its base-10 logarithm.

Sample KRRHPKKC [CW peptides] ; pKd observed: 5.63
